Value source: patent US20150071918A1

system: H929 myeloma cells; assay type: cell-based, human; conditions: 24 h
*1 amine or outer side, *2 acyl side, *3 side chain or, on linkers, in order; H or OH if unused. Where a SMILES comes first, the peptide text is derived from it. Bridges are numbered along the chain shown (N, C = ends). [ ]: non-standard residue; d: D form. The star is where a group is joined. dProlinol(O-CH2CO) = O=C(COC[C@H]1CCCN1[*:1])[*:2]; N(2-Aminoethyl)Gly = O=C(CN(CCN[*:3])[*:1])[*:2]; Nle = CCCC[C@H](N)C(=O)O; Ms = CS(=O)(=O)*
value kind: pIC50
In simple prose, pIC50 is minus the logarithm base ten of a concentration in moles per litre.

Please review the following examples before continuing.
compound	system	pIC50
CSCC[C@H]1NC(=O)CN(S(C)(=O)=O)CCNC(=O)[C@@H](CCCCN)NC(=O)[C@@H](CC(C)C)NC(=O)[C@@H](CCCCN)NC(=O)[C@@H](CC(C)C)NC(=O)[C@@H](CCCCN)NC(=O)CN(S(C)(=O)=O)CCNC(=O)[C@@H](Cc2c[nH]c3ccccc23)NC(=O)[C@@H](CO)NC(=O)[C@@H](C(C)C)NC(=O)[C@@H](C(C)C)NC1=O	H929 myeloma cells	4.52
CCCC[C@@H]1NC(=O)[C@H](C(C)C)NC(=O)[C@H](C(C)C)NC(=O)[C@H](C)NC(=O)[C@H](Cc2c[nH]c3ccccc23)NC(=O)COC[C@H]2CCCN2C(=O)[C@H](CCCCN)NC(=O)[C@H](CC(C)C)NC(=O)[C@H](CCCCN)NC(=O)[C@H](CC(C)C)NC(=O)[C@H](CCCCN)NC(=O)COC[C@H]2CCCN2C1=O [Peptide 22, KLKLKT3WAVVN*T3] (cyclo(KLKLK[dProlinol(O-CH2CO)]WAVV[Nle][dProlinol(O-CH2CO)]))	H929 myeloma cells	4.77

Shift focus to the following entry.
Q: So what does the record say about pIC50 for CCCC[C@@H]1NC(=O)CN(S(C)(=O)=O)CCNC(=O)[C@H](CCCCN)NC(=O)[C@H](CC(C)C)NC(=O)[C@H](CCCCN)NC(=O)[C@H](CC(C)C)NC(=O)[C@H](CCC(N)=O)NC(=O)COC[C@H]2CCCN2C(=O)[C@H](Cc2c[nH]c3ccccc23)NC(=O)[C@H](C)NC(=O)[C@H](C(C)C)NC(=O)[C@H](C(C)C)NC1=O [Peptide 18, QLKLKT1N*VVAWT3] (Ms-[N(2-Aminoethyl)Gly][Nle]VVAW[dProlinol(O-CH2CO)]QLKLK; lactam 1-C) ?
Ans: 4.72

---

system: H929 myeloma cells; type: cell-based, human; conditions: H929 myeloma cells, 24 h treatment, Topro-3 staining and FACS; mean of at least 3 independent experiments; read-out: IC50
pIC50: −log10 of the molar value. *1 amine or outer side, *2 acyl side, *3 side chain or, on linkers, in order; H or OH if unused. Primed or numbered codes have the meaning given here. [ ]: non-standard residue; d: D form. T1 = linker NH2CH2CH2N(SO2Me)CH2COOH, CS(=O)(=O)N(CCN[*:1])CC(=O)[*:2]; T1″ = NH2CH2CH2N(SO2Me)CH2COOH, CS(=O)(=O)N(CCN[*:1])CC(=O)[*:2]; T3 = linker N(CH2)3CHCH2OCH2COOH; Nle = CCCC[C@H](N)C(=O)O
Outcome label depends on pIC50 relative to 5: at/above gives 1 (yes), below gives 0 (no).

Examples from the recorded data:
substance	system	classification
KLKLKT1AAVVN*T1 (cyclo(KLKLK[T1″]AAVV[Nle][T1″])) [Peptide 15]	H929 myeloma cells	0 (no)
KLKQKT1N*VVAWT3 [21] (cyclo(KLKQK[T1][Nle]VVAW[T3])) [Peptide 21]	H929 myeloma cells	0 (no)
KLKQKT1N*VVAWT3 [17] (cyclo(KLKQK[T1][Nle]VVAW[T3])) [Peptide 17]	H929 myeloma cells	0 (no)
KLKLKT1WSVVMT1 (cyclo(KLKLK[T1]WSVVM[T1])) [Peptide 10]	H929 myeloma cells	1 (yes)
KQKLKT1N*VVAWT3 (cyclo(KQKLK[T1][Nle]VVAW[T3])) [Peptide 20]	H929 myeloma cells	0 (no)

Okay, now this substance:
Q: Could you please find out whether KLKLKT1WAAVN*T1 (cyclo(KLKLK[T1″]WAAV[Nle][T1″])) [Peptide 14] has pIC50 that meets 5 or exceeds it?
Ans: 0 (no)
